Tested on: pig liver esterase
Experiment: Metabolism by pig liver esterase with and without human plasma proteins
Assay type: in vitro ADME
Settings: pig, pig liver esterase in human plasma protein solution
Exercise: state measured half-life at 4.9 µM for each of the compounds provided.
Remember to follow the number with its unit.

Look up half-life at 4.9 µM for this compound: "O=C(C[C@H]1CN(C2=Nc3cc(Cl)ccc3Oc3ccccc32)CCN1)O[C@H]1CCOC1"
30 min

What would you report for "O=C(C[C@H]1CN(C2=Nc3cc(Cl)ccc3Oc3ccccc32)CCN1)OC1CCCC1" ?
15 min

What would you report for CC(C)OC(=O)CC1CN(C2=Nc3cc(Cl)ccc3Oc3ccccc32)CCN1 (stereo not drawn) ?
30 min

What would you report for "O=C(C[C@H]1CN(C2=Nc3cc(Cl)ccc3Oc3ccccc32)CCN1)OC1CCOCC1" ?
15 min

What would you report for CCOC(=O)CC1CN(C2=Nc3ccc(F)cc3Oc3ccccc32)CCN1 (stereo not drawn) ?
15 min

What would you report for "CCOC(=O)C[C@H]1CN(C2=Nc3cc(Cl)ccc3Oc3ccccc32)CCN1CCC(C)C" ?
60 min

What would you report for CCC(C)OC(=O)C[C@H]1CN(C2=Nc3cc(Cl)ccc3Oc3ccccc32)CCN1C (stereo partly drawn) ?
30 min

What would you report for CCOC(=O)CC1CN(C2=Nc3cc(Cl)ccc3Oc3ccccc32)CCN1 (stereo not drawn) ?
15 min

What would you report for CC(C)OC(=O)CC1CN(C2=Nc3ccc(F)cc3Oc3ccccc32)CCN1 (stereo not drawn) ?
15 min

* * *

Below are pKi values recorded for human M1 receptors (Homo sapiens, UniProt P11229).
pKi: −log10 of the molar value.

Look up pKi for this molecule: "O=C(C[C@H]1CN(C2=Nc3cc(Cl)ccc3Oc3ccccc32)CCN1)N1CCOCC1"
5.61 to 5.90

What would you report for "CC(C)(CO)NC(=O)C[C@H]1CN(C2=Nc3cc(Cl)ccc3Oc3ccccc32)CCN1" ?
< 5.00

What would you report for "O=C(C[C@H]1CN(C2=Nc3cc(Cl)ccc3Oc3ccccc32)CCN1)N1CCC[C@H]1C(F)(F)F" ?
≥ 5.91

What would you report for "COCCCNC(=O)C[C@H]1CN(C2=Nc3cc(Cl)ccc3Oc3ccccc32)CCN1" ?
< 5.00

What would you report for "O=C(C[C@H]1CN(C2=Nc3cc(Cl)ccc3Oc3ccccc32)CCN1)NCCO" ?
< 5.00

What would you report for "CC(C)(O)CCOC(=O)C[C@H]1CN(C2=Nc3cc(Cl)ccc3Oc3ccccc32)CCN1" ?
< 5.00

What would you report for COC(=O)CC1CN(C2=Nc3cc(C(F)(F)F)ccc3Oc3ccccc32)CCN1 (stereo not drawn) ?
< 5.00

What would you report for "COC(=O)C[C@H]1CN(C2=Nc3cc(Cl)ccc3Oc3ccccc32)CCN1CC1CC1" ?
5.31 to 5.60

What would you report for CCOC(=O)CC1CN(C2=Nc3cc(Cl)ccc3Oc3ccccc32)CCN1C (stereo not drawn) ?
5.31 to 5.60

* * *

Below are Ki values recorded for human 5HT2C receptors (Homo sapiens, UniProt P28335).

Look up Ki for this compound: CN1CCN(C2=Nc3cc(Cl)ccc3Oc3ccccc32)C[C@@H]1CC(=O)OC1CCOCC1 [DZ]
100 to 977 nM

What would you report for C[C@H](CC(C)(C)O)OC(=O)C[C@H]1CN(C2=Nc3cc(Cl)ccc3Oc3ccccc32)CCN1 [Compound ED] ?
< 9.77 nM

What would you report for CC(C)OC(=O)CC1CN(C2=Nc3cc(Cl)ccc3Oc3ccccc32)CCN1 (stereo not drawn) [L] ?
10 to 97.7 nM

What would you report for O=C(C[C@H]1CN(C2=Nc3cc(Cl)ccc3Oc3ccccc32)CCN1)O[C@H]1CN2CCC1CC2 [DT] ?
100 to 977 nM

What would you report for CCOC(=O)CC1CN(C2=Nc3cc(Cl)ccc3Oc3ccccc32)CCN1 (stereo not drawn) [A] ?
10 to 97.7 nM

What would you report for CN1CCN(C2=Nc3cc(Cl)ccc3Oc3ccccc32)C[C@@H]1CC(=O)O[C@@H]1CN2CCC1CC2 [DS] ?
1000 to 9770 nM

What would you report for CC(C)(C)COC(=O)C[C@H]1CN(C2=Nc3cc(Cl)ccc3Oc3ccccc32)CCN1 [EA] ?
10 to 97.7 nM

What would you report for CN1CCN(C2=Nc3cc(Cl)ccc3Oc3ccccc32)C[C@@H]1CC(=O)OC1CCCC1 [DX] ?
100 to 977 nM

What would you report for O=C(C[C@H]1CN(C2=Nc3cc(Cl)ccc3Oc3ccccc32)CCN1)NCCO [FA] ?
10 to 97.7 nM

What would you report for O=C(C[C@H]1CN(C2=Nc3cc(Cl)ccc3Oc3ccccc32)CCN1)NCC(O)C(F)(F)F (stereo partly drawn) [GF] ?
10 to 97.7 nM

What would you report for CN1CCN(C2=Nc3cc(Cl)ccc3Oc3ccccc32)CC1CC(=O)O (stereo not drawn) [DO] ?
100 to 977 nM

What would you report for COCCNC(=O)C[C@H]1CN(C2=Nc3cc(Cl)ccc3Oc3ccccc32)CCN1 [FC] ?
10 to 97.7 nM

What would you report for COC(=O)C[C@H]1CN(C2=Nc3cc(Cl)ccc3Oc3ccccc32)CCN1C [DW] ?
100 to 977 nM

What would you report for COC(=O)C[C@@H]1CN(C2=Nc3cc(Cl)ccc3Oc3ccccc32)CCN1 [Compound P] ?
100 to 977 nM

What would you report for CCC(C)OC(=O)C[C@H]1CN(C2=Nc3cc(Cl)ccc3Oc3ccccc32)CCN1C (stereo partly drawn) [DY] ?
100 to 977 nM

What would you report for COC(C)(C)CCOC(=O)C[C@H]1CN(C2=Nc3cc(Cl)ccc3Oc3ccccc32)CCN1 [EB] ?
10 to 97.7 nM

What would you report for O=C(C[C@H]1CN(C2=Nc3cc(Cl)ccc3Oc3ccccc32)CCN1)OC1CCCC1 [DR] ?
10 to 97.7 nM

What would you report for COC(=O)CC1CN(C2=Nc3cc(Cl)ccc3Oc3ccccc32)CCN1 (stereo not drawn) [I] ?
10 to 97.7 nM

* * *

Below are Ki values recorded for human H1 receptors (Homo sapiens).

Look up Ki for this compound: "CC(C)(O)CCOC(=O)C[C@H]1CN(C2=Nc3cc(Cl)ccc3Oc3ccccc32)CCN1"
0.01 to 0.0977 µM

What would you report for "O=C(C[C@H]1CN(C2=Nc3cc(Cl)ccc3Oc3ccccc32)CCN1)OC1CCCC1" ?
1 to 9.77 µM

What would you report for CCOC(=O)CC1CN(C2=Nc3ccc(F)cc3Oc3ccccc32)CCN1 (stereo not drawn) ?
0.1 to 0.977 µM

What would you report for CCOC(=O)CC1CN(C2=Nc3cc(Cl)ccc3Oc3ccccc32)CCN1 (stereo not drawn) ?
0.1 to 0.977 µM

What would you report for "O=C(C[C@H]1CN(C2=Nc3cc(Cl)ccc3Oc3ccccc32)CCN1)OC1CCOCC1" ?
1 to 9.77 µM

What would you report for CC(C)OC(=O)CC1CN(C2=Nc3ccc(F)cc3Oc3ccccc32)CCN1 (stereo not drawn) ?
1 to 9.77 µM

What would you report for "O=C(C[C@H]1CN(C2=Nc3cc(Cl)ccc3Oc3ccccc32)CCN1)NCC(F)F" ?
0.01 to 0.0977 µM

What would you report for "COC(=O)C[C@H]1CN(C2=Nc3cc(Cl)ccc3Oc3ccccc32)CCN1CC1CC1" ?
0.1 to 0.977 µM

What would you report for "CCOC(=O)C[C@H]1CN(C2=Nc3cc(Cl)ccc3Oc3ccccc32)CCN1CCC(C)C" ?
0.1 to 0.977 µM

What would you report for CCC(C)OC(=O)C[C@H]1CN(C2=Nc3cc(Cl)ccc3Oc3ccccc32)CCN1C (stereo partly drawn) ?
0.01 to 0.0977 µM

What would you report for "O=C(C[C@H]1CN(C2=Nc3cc(Cl)ccc3Oc3ccccc32)CCN1)O[C@@H]1CN2CCC1CC2" ?
0.1 to 0.977 µM

What would you report for "COC(=O)C[C@@H]1CN(C2=Nc3cc(Cl)ccc3Oc3ccccc32)CCN1" ?
0.1 to 0.977 µM

What would you report for CCOC(=O)CC1CN(C2=Nc3ccc(Cl)cc3Oc3ccccc32)CCN1 (stereo not drawn) ?
0.1 to 0.977 µM

What would you report for "CC[C@H](C)OC(=O)C[C@H]1CN(C2=Nc3cc(Cl)ccc3Oc3ccccc32)CCN1" ?
0.1 to 0.977 µM

What would you report for "COc1ccc(NC(=O)C[C@H]2CN(C3=Nc4cc(Cl)ccc4Oc4ccccc43)CCN2)cn1" ?
0.01 to 0.0977 µM

What would you report for "CCCN(CCO)C(=O)C[C@H]1CN(C2=Nc3cc(Cl)ccc3Oc3ccccc32)CCN1" ?
0.01 to 0.0977 µM

What would you report for "C[C@H](CC(C)(C)O)OC(=O)C[C@H]1CN(C2=Nc3cc(Cl)ccc3Oc3ccccc32)CCN1" ?
0.01 to 0.0977 µM

What would you report for "O=C(O)C[C@H]1CN(C2=Nc3cc(Cl)ccc3Oc3ccccc32)CCN1" ?
0.1 to 0.977 µM

What would you report for "CCOC(=O)C[C@H]1CN(C2=Nc3cc(Cl)ccc3Oc3ccccc32)CCN1" ?
0.1 to 0.977 µM

What would you report for "COC(C)(C)CCOC(=O)C[C@H]1CN(C2=Nc3cc(Cl)ccc3Oc3ccccc32)CCN1" ?
0.01 to 0.0977 µM

What would you report for "COCCCNC(=O)C[C@H]1CN(C2=Nc3cc(Cl)ccc3Oc3ccccc32)CCN1" ?
0.01 to 0.0977 µM

What would you report for "C[C@@H](O)CNC(=O)C[C@H]1CN(C2=Nc3cc(Cl)ccc3Oc3ccccc32)CCN1" ?
0.01 to 0.0977 µM

What would you report for "O=C(C[C@H]1CN(C2=Nc3cc(Cl)ccc3Oc3ccccc32)CCN1)NCCCO" ?
≤ 0.00977 µM

What would you report for "O=C(C[C@H]1CN(C2=Nc3cc(Cl)ccc3Oc3ccccc32)CCN1)NC[C@@H]1CCCO1" ?
0.01 to 0.0977 µM

What would you report for "COC(=O)C[C@H]1CN(C2=Nc3cc(Cl)ccc3Oc3ccccc32)CCN1C" ?
0.1 to 0.977 µM

What would you report for COC(=O)CC1CN(C2=Nc3cc(Cl)ccc3Oc3ccccc32)CCN1 (stereo not drawn) ?
0.1 to 0.977 µM

What would you report for "CCOC(=O)C[C@@H]1CN(C2=Nc3cc(Cl)ccc3Oc3ccccc32)CCN1" ?
0.1 to 0.977 µM

What would you report for "O=C(C[C@H]1CN(C2=Nc3cc(Cl)ccc3Oc3ccccc32)CCN1)N1CCC[C@H]1C(F)(F)F" ?
0.01 to 0.0977 µM

What would you report for "O=C(O)C[C@@H]1CN(C2=Nc3cc(Cl)ccc3Oc3ccccc32)CCN1" ?
0.1 to 0.977 µM

What would you report for "O=C(C[C@H]1CN(C2=Nc3cc(Cl)ccc3Oc3ccccc32)CCN1)NCCOCCO" ?
0.01 to 0.0977 µM

What would you report for CCOC(=O)CC1CN(C2=Nc3cc(Cl)ccc3Oc3ccccc32)CCN1C (stereo not drawn) ?
0.1 to 0.977 µM

What would you report for CC(C)OC(=O)CC1CN(C2=Nc3cc(Cl)ccc3Oc3ccccc32)CCN1 (stereo not drawn) ?
0.1 to 0.977 µM

What would you report for "CN1CCN(C2=Nc3cc(Cl)ccc3Oc3ccccc32)C[C@@H]1CC(=O)OCCCF" ?
0.01 to 0.0977 µM

What would you report for "CC(C)(CO)NC(=O)C[C@H]1CN(C2=Nc3cc(Cl)ccc3Oc3ccccc32)CCN1" ?
0.01 to 0.0977 µM

What would you report for "O=C(C[C@H]1CN(C2=Nc3cc(Cl)ccc3Oc3ccccc32)CCN1)O[C@H]1CCOC1" ?
0.01 to 0.0977 µM

What would you report for O=C(O)CC1CN(C2=Nc3cc(Cl)ccc3Oc3ccccc32)CCN1 (stereo not drawn) ?
0.1 to 0.977 µM

Measured values drawn from patent US20120178738A1 for this set.
